target: cynomolgus monkey STING protein (Macaca fascicularis, UniProt A0A2R3XZA6); assay: Luciferase reporter assay, cynomolgus monkey STING overexpressed in HEK293T cells; type: cell-based; conditions: cynomolgus monkey STING overexpressed in HEK293T cells; read-out: Cynomolgus monkey STING activity (EC50 range)
Sequence (A0A2R3XZA6 entry or part of it): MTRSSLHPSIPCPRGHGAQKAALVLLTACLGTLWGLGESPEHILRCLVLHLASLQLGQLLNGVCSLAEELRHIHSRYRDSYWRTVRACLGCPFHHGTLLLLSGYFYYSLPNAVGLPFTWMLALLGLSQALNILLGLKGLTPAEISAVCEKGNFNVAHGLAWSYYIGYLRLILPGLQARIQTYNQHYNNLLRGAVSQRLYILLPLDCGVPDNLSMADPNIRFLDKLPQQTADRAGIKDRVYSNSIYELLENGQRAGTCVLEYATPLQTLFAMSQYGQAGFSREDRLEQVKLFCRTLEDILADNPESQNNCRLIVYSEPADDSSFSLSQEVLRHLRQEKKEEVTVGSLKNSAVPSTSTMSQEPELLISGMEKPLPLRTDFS
pEC50: −log10 of the molar value.
result.type: pEC50

C[C@H]1c2ccc(C(=O)NCc3c(F)cc(F)cc3F)cc2N(Cc2c(F)cc(OP(=O)(O)O)cc2F)C(=O)N1C: > 6.00
C[C@H]1c2ccc(C(=O)NCc3c(F)cc(F)cc3F)cc2N(Cc2c(F)ccc(OCCOP(=O)(O)O)c2Cl)C(=O)N1C: < 5.00
C[C@H]1c2ccc(C(=O)NCc3c(F)cc(F)cc3F)cc2N(Cc2c(F)ccc(N)c2Cl)C(=O)N1C: > 6.00
C[C@H]1c2ccc(C(=O)NCc3c(F)cc(F)cc3F)cc2N(Cc2c(O)cc(F)cc2F)C(=O)N1C: > 6.00
Cc1ncc(Cl)c(CN2C(=O)N(C)[C@@H](C)c3ccc(C(=O)NCc4c(F)cc(F)cc4F)cc32)c1F: > 6.00

Fill in: pEC50 of `C[C@H]1c2ccc(C(=O)NCc3c(F)cc(OP(=O)(O)O)cc3F)cc2N(Cc2c(F)cccc2Cl)C(=O)N1C` is ___
5.00 to 6.00

Give the measured pEC50 of COc1cccc(F)c1CN1C(=O)N(C)C(C)c2ccc(C(=O)NCc3c(F)cc(F)cc3F)cc21 (stereo not drawn) .
> 6.00

Give the measured pEC50 of `C[C@H]1c2ccc(C(=O)NCc3c(F)cc(F)cc3F)cc2N(Cc2c(F)ccc(O)c2Cl)C(=O)N1C` .
> 6.00

Name the reported pEC50 value associated with the molecule `COc1ccc(F)c(CN2C(=O)N(C)[C@@H](C)c3ccc(C(=O)NCc4c(F)cc(F)cc4F)cc32)c1Cl`
> 6.00
